- Tested on: PPARg DBDmut IVT, anti-PPARg (DBD mutation: PPARg1 K132A/R137A, NR concentration 270 nM)
- method.description: PBM binding z-score (relative to random genomic background probes); higher = stronger binding; sequences stand for … in GC…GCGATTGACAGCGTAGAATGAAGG
Quick rule: PBM binding z-score of at least 0.08 means true (1), below that means false (0).

• CCTACTGGGCCACGAAAGGTTATTGATTCAGTGA = false (0)
• CCTACTGGGTCAAAAAGGTCATTGATGCCGATAA = false (0)
• GCATATAGGTAACACAAGGTGAAAGTCCGATTGT = true (1)

Record "TCTAGTTGGTCACGGAGATCACACACGACGGGTA" ; criterion: PBM binding z-score no lower than 0.08. Met?
true (1)

Quick check, PBM binding z-score >= 0.08? "TGTCAAAGTTCAAAGGTAAGGTAAGTATCCACAC"
true (1)

Record "TCGCCTAGGTCATTCAGGGGCCAGTATAGAAAGC" ; criterion: PBM binding z-score no lower than 0.08. Met?
false (0)

Decide: is the reported value of PBM binding z-score for "TCTATTGGTTGAAGGGCAACCGACGAGTCCGTTT" equal to or greater than 0.08?
true (1)

Quick check, PBM binding z-score >= 0.08? "ACTAGCAGGCCAAGGGTCACTCACGATTAGTCCG"
false (0)

State whether the measured PBM binding z-score reaches 0.08, counting equality as reaching it, for "CGTCAAAGTTCAAGGTAACCTAACAGAAAGCAGC"
true (1)

Answer whether PBM binding z-score of "TTACCAAGGAGAAGGTCGTTGATCCCTCTGTAGA" is greater than or equal to 0.08.
true (1)

Determine whether this sequence has PBM binding z-score no lower than 0.08: "CGTCCCAGGTCAAGGTCAGTGAAAGAGACTCGAA"
false (0)
